The reported measurements were obtained from the supplement of paper PMC7411054.

Record form. Attribute: lowest phenotypically active concentration. Fill in for each entry.
system: WPMY1-ACTB-RAB5A; assay: lowest phenotypically active concentration; higher = less potent; settings: treatment time: 24 h
Structures can show the parent of a compound that is named as a salt.
State the answer as a number, implicitly in µM.

// lowest phenotypically active concentration lookup, key: Nc1nc(Cl)nc2c1ncn2[C@H]1C[C@H](O)[C@@H](CO)O1 1

Try this compound too: Nc1cc(C(F)(F)F)c(-c2cc(N3CCOCC3)nc(N3CCOCC3)n2)cn1 3

Try this compound too: C[C@]1(O)C[C@@H](c2nc(-c3ccc4ccc(-c5ccccc5)nc4c3)c3c(N)nccn32)C1 9

Try this compound too: CN(C)c1ccc(/C=C2\C(=O)Nc3ccccc32)cc1 9

Try this compound too: COc1cc(N2CCC(O)CC2)ccc1Nc1cc(Nc2ccccc2S(=O)(=O)C(C)C)c2cc[nH]c2n1 [Mps1-IN-1 dihydrochloride] 9

Try this compound too: Cc1ccc(NC(=O)CCCCCC(=O)Nc2ccccc2N)cc1 9

Try this compound too: c1cc(-c2cc(C3CCNCC3)[nH]n2)ccn1 9

Try this compound too: CC(C)OC(=O)c1cc2c(OCC(O)CNC(C)(C)C)cccc2[nH]1 (stereo unspecified) 3

Try this compound too: Cc1ccc(NC(=O)c2cccc(N(C)C)c2)cc1NC(=O)c1ccc(O)cc1 9

Try this compound too: CCN1CCN(c2ccc(Nc3cc(N(C)C(=O)Nc4c(Cl)c(OC)cc(OC)c4Cl)ncn3)cc2)CC1 9

Try this compound too: CCOc1cc(N2CCC(O)CC2)ccc1Nc1ncc2c(n1)N(C)c1ccccc1C(=O)N2C 3

Try this compound too: COc1cc2nccc(Oc3ccc(NC(=O)NC4CC4)c(Cl)c3)c2cc1C(N)=O 1

----------
test system: HepG2-TUBA1B-RELA; assay: phenotypically active (imaging signature differs from DMSO and reproducible) at any of 0.3-9 uM (binary (1 = active, 0 = inactive)); higher = active; settings: treatment time: 24 h
Structures can show the parent of a compound that is named as a salt.
Endpoint: phenotypically active
API doc: respond with a numeric literal and nothing else, no unit.

// phenotypically active lookup, key: CC(C)Cn1c(=O)n(C)c(=O)c2[nH]cnc21 0

Try this compound too: CC(C)(C)c1ccc(S(=O)(=O)/C=C/C#N)cc1 1

Try this compound too: CCCCCN(C)CCC(O)(P(=O)(O)O)P(=O)(O)O [ibandronate] 0

Try this compound too: COc1ccc(C(=O)C2CCN(CC(=O)N(Cc3nc4c(c(=O)[nH]3)COCC4)CC3CC3)CC2)cc1 0

Try this compound too: CC[N+](C)(C)c1cccc(O)c1 [edrophonium] 0

Try this compound too: COc1ccc([C@@H]2Sc3ccccc3N(CCN(C)C)C(=O)[C@@H]2OC(C)=O)cc1 [diltiazem] 0

Try this compound too: CN(C)CCCC1(c2ccc(F)cc2)OCc2cc(C#N)ccc21 (stereo not given) [citalopram] 0

Try this compound too: CC(C)(C)n1nc(-c2ccc(Cl)cc2)c2c(N)ncnc21 0

Try this compound too: Cn1cnc([N+](=O)[O-])c1Sc1ncnc2nc[nH]c12 [azathioprine] 0

Try this compound too: CC(=O)Nc1ccc(NC(=S)NC(=O)c2ccc(C(C)(C)C)cc2)cc1 [Tenovin-1] 1

Try this compound too: COC(=O)C(Cc1ccc(OCCn2c(=O)sc3cc(C(=O)c4ccccc4)ccc32)cc1)C(=O)OC 0

Try this compound too: O=C(O/N=C1\c2ccccc2-c2nc3ccccc3nc21)c1ccco1 0

Try this compound too: Clc1ccc(C(c2ccc(Cl)cc2)[n+]2ccn(CC(OCc3ccc(Cl)cc3Cl)c3ccc(Cl)cc3Cl)c2)cc1 (stereo not given) [Calmidazolium chloride] 1

Try this compound too: CNCC[C@@H](Oc1ccccc1C)c1ccccc1 [atomoxetine] 0

Try this compound too: Cc1[nH]c2ccccc2c1CCNC(=O)c1ccccc1F 0

Try this compound too: CC(C)(C)c1cc(C(=O)/C=C/c2ccc(C(=O)O)cc2)cc(C(C)(C)C)c1 0

Try this compound too: CN(C)CC(=O)N1CCC[C@@H](n2nc(-c3ccc(Oc4ccccc4)cc3)c3c(N)ncnc32)C1 1

Try this compound too: CCCCCCC(=O)OC1CC(C)(C)NC(C)(C)C1 [TMPH hydrochloride] 0

Try this compound too: C=CCc1ccc(O)c(-c2ccc(O)c(CC=C)c2)c1 [Honokiol] 0

Try this compound too: O=C(NCCN1CCC(n2c(=O)[nH]c3ccccc32)CC1)c1cc2cc(F)ccc2[nH]1 1
